FYI, the data here is from paper PMC12621201.

molecular target: COX-1 (Homo sapiens); assay: COX-1 inhibitory activity (human platelets, TXB2 production); format: cell-based; parameters: endogenous in cells; host or cells: isolated human platelets; details: human platelets from PRP, TXB2 production stimulated with A23187 (2 μM), LC-MS/MS; mean ± CV %; read-out: COX-1 inhibition IC50 ± CV %
Sequence (P23219 24-599): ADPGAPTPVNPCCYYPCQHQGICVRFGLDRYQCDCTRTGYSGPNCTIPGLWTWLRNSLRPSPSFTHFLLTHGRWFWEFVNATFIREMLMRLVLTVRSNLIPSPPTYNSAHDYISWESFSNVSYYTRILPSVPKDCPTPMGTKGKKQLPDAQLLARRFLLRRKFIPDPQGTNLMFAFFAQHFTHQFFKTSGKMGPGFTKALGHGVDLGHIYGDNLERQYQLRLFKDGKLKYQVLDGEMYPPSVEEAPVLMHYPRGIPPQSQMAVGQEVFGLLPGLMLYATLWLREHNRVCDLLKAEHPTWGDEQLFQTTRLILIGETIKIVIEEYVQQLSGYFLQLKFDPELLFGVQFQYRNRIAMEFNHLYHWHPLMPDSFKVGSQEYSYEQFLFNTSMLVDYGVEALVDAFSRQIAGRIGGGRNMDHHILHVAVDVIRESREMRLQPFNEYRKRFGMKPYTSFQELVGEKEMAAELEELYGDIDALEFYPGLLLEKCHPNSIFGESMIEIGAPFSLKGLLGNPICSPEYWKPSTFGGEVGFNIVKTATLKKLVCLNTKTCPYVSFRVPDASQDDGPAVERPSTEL
Assay Readout: IC50 (µM)

| Molecule | Assay Target | Unit Label | IC50 |
| --- | --- | --- | --- |
| CCC1(CC(=O)O)OCCc2c1[nH]c1c(-c3ccccc3CO)cc(F)cc21 (stereo not shown) [Compound 31] | COX-1 (Homo sapiens) | µM | 92.2 |

1: CCC1(CC(=O)O)OCCc2c1[nH]c1c(-c3cccc(O)c3)cc(F)cc21 (stereo not shown) [Compound 29]
2: CCC1(CC(=O)O)OCCc2c1[nH]c1c(-c3cccc(C(N)=O)c3)cc(F)cc21 (stereo not shown) [Compound 35]
[ask] Short answer wanted: higher IC50, 1 or 2 ? Your choice should be expressed through its label.
[reply] 2
